assay-notes: The drug is tested on Z-010 corresponding to metagenome with ENA study accession number: PRJEB37062 and ENA sample accession number: ERS12561810 for biotransformation under anaerobic condition. The drug concentrations were measured over 9 timepoints collected between 0 and 24 hours of incubation by liquid-chromatography-coupled mass spectrometry (LC–MS); note: call rule not given here
run-parameters: 2 µM
measured-attribute: Bacterial Biotransformation

O=C1[C@H](CC[C@H](O)c2ccc(F)cc2)[C@@H](c2ccc(O)cc2)N1c1ccc(F)cc1 : Compound NOT metabolized
COc1ccccc1N1CCN(CC(O)COc2cccc3ccccc23)CC1 (stereo not drawn) : Compound NOT metabolized

* * *

assay-notes: The drug is tested on Z-008 corresponding to metagenome with ENA study accession number: PRJEB37062 and ENA sample accession number: ERS12561808 for biotransformation under anaerobic condition. The drug concentrations were measured over 9 timepoints collected between 0 and 24 hours of incubation by liquid-chromatography-coupled mass spectrometry (LC–MS)
run-parameters: 2 µM
measured-attribute: Bacterial Biotransformation

Here's what some known entries look like.
CCCc1nn(C)c2c(=O)[nH]c(-c3cc(S(=O)(=O)N4CCN(C)CC4)ccc3OCC)nc12.O=C(O)CC(O)(CC(=O)O)C(=O)O [SILDENAFIL CITRATE] : Compound NOT metabolized
CC(=O)OCC(=O)[C@@]1(O)[C@@H](C)C[C@H]2[C@@H]3CCC4=CC(=O)C=C[C@]4(C)[C@@]3(F)[C@@H](O)C[C@@]21C [BETAMETHASONE ACETATE] : Compound NOT metabolized
Cc1ccc(S(=O)(=O)NC(=O)NN2CC3CCCC3C2)cc1 (centres undefined) [GLICLAZIDE] : Compound NOT metabolized
C#C[C@]1(O)CC[C@H]2[C@@H]3CCC4=Cc5oncc5C[C@]4(C)[C@H]3CC[C@@]21C : Compound metabolized
CC[C@H](C)C(=O)O[C@H]1C[C@@H](C)C=C2C=C[C@H](C)[C@H](CC[C@@H]3C[C@@H](O)CC(=O)O3)[C@H]21 : Compound NOT metabolized
CCOC(=O)[C@H](CCc1ccccc1)N[C@H]1CCc2ccccc2N(CC(=O)O)C1=O : Compound metabolized

Lookup: Look up Bacterial Biotransformation for this compound: CCOC(=O)[C@H](CCc1ccccc1)N[C@@H](C)C(=O)N1[C@H](C(=O)O)C[C@H]2CCCC[C@@H]21
Found: Compound NOT metabolized

Lookup: What does the record list as Bacterial Biotransformation for NC(=O)N1c2ccccc2CC(=O)c2ccccc21 [OXCARBAZEPINE] ?
Found: Compound NOT metabolized

Lookup: I have this compound here, Cc1cn([C@H]2C[C@H](N=[N+]=[N-])[C@@H](CO)O2)c(=O)[nH]c1=O , and I need its recorded Bacterial Biotransformation.
Found: Compound NOT metabolized

Where do these numbers come from? They come from ChEMBL document CHEMBL5724914.
